Reference source: patent US8796297B2

TARGET ENTITY: human histamine H3 receptor (Homo sapiens (Human))
Sequence (Q9Y5N1 whole entry): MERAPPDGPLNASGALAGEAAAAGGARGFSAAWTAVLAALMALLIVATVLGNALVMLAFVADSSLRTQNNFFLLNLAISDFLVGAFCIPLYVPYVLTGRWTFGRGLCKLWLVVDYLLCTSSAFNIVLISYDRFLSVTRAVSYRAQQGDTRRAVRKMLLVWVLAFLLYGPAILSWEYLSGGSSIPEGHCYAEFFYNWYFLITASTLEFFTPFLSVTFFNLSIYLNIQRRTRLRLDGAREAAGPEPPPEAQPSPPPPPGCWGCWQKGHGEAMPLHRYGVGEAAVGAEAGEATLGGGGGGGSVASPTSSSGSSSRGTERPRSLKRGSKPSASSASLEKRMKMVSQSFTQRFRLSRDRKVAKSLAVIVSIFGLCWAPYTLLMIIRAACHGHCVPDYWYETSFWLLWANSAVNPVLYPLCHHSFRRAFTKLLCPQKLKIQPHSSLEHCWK
Structures can show the parent of a compound that is named as a salt.
Strictly below 60 nM in Ki: T. Otherwise: F.

Query block: Threshold test, Ki < 60 nM: "Nc1nccc(N2C[C@H]3CN(Cc4ccccc4)C[C@H]3C2)n1"
Result block: F

Query block: Threshold test, Ki < 60 nM: Nc1nccc(N2CCNCC2)n1 [Example 25, dihydrochloride]
Result block: T

Query block: Threshold test, Ki < 60 nM: "CN1CCN(c2ccnc(N)n2)CC1"
Result block: T

Query block: Threshold test, Ki < 60 nM: Cl.Cl.Nc1nccc(N2CCC(N)CC2)n1 [Example 20, dihydrochloride]
Result block: F

Query block: Threshold test, Ki < 60 nM: CNCCCNc1ccnc(N)n1 [Example 7, dihydrochloride]
Result block: T

Query block: Threshold test, Ki < 60 nM: Nc1nccc(NC2CCN(Cc3ccccc3)CC2)n1 [Example 12, 2,2,2-trifluoroacetate]
Result block: F

Query block: Threshold test, Ki < 60 nM: CN(C)CCN(C)c1ccnc(N)n1 [Example 3, dihydrochloride]
Result block: F

Query block: Threshold test, Ki < 60 nM: CN(CCCN)c1ccnc(N)n1 [Example 8, dihydrochloride]
Result block: F

Query block: Threshold test, Ki < 60 nM: "NCCNc1ccnc(N)n1.O=C(O)C(O)C(O)C(=O)O"
Result block: F

Query block: Threshold test, Ki < 60 nM: Nc1nccc(NC2CCNCC2)n1 [Example 24, dihydrochloride]
Result block: F

Query block: Threshold test, Ki < 60 nM: Nc1nccc(N2CCC3(CC2)CNC3)n1 [Example 23, trihydrochloride]
Result block: F

----------
Structures can show the parent of a compound that is named as a salt.
Provide the reported Ki of each item.
Numeric only. Scale: nM

Query block: What value of Ki on human histamine H3 receptor (Homo sapiens (Human)) does CN(C)CCNc1ccnc(N)n1 [Example 2, 2,2,2-trifluoroacetate] have?
Result block: 53.7

Query block: What value of Ki on human histamine H3 receptor (Homo sapiens (Human)) does Nc1nccc(NC2CNC2)n1 [Example 22, trihydrochloride] have?
Result block: 33.1

Query block: What value of Ki on human histamine H3 receptor (Homo sapiens (Human)) does Nc1nccc(N2CCCN(Cc3ccccc3)CCC2)n1 [Example 21] have?
Result block: 162

Query block: What value of Ki on human histamine H3 receptor (Homo sapiens (Human)) does CN(C)CCCN(C)c1ccnc(N)n1.O=C(O)C(O)C(O)C(=O)O [Example 9] have?
Result block: 182
